Cited source: paper PMC12388242

test system: HCT-8 (colon cancer) cells; experiment: MTT cell viability assay, HCT-8 cells; details: Homo sapiens, HCT-8, 24 h, read-out: IC50 against HCT-8 (Colon Cancer)
endpoint-name: IC50 (µM)
Answer with a number only, understood to be in µM.

Query: // IC50 lookup, key: COc1cc([C@@H]2c3cc4c(cc3[C@@H](O[C@@H]3O[C@@H]5CO[C@@H](C)O[C@H]5[C@H](O)[C@H]3O)[C@H]3COC(=O)[C@H]23)OCO4)cc(OC)c1O [Etoposide, reference compound]
Result: 33.7

====

Test system: SK-OV-3 (ovarian cancer) cells
Test: MTT cell viability assay, SK-OV-3 cells
Protocol: HCT-8 (colorectal carcinoma), and SK-OV-3 (ovarian cancer) cell lines were obtained from the American Type Culture Collection (ATCC; Manassas, VA, USA). […] Cell viability was determined using the 3-(4,5-dimethylthiazol-2-yl)-2,5-diphenyltetrazolium bromide (MTT) colorimetric assay (Sigma Chemical Co., St. Louis, MO). […]
Where a SMILES comes first, the peptide text is derived from it. [ ]: non-standard residue; d: D form. Aib = CC(C)(N)C(=O)O
endpoint-name: cytotoxicity against SK-OV-3 cells, in words

compound	recorded-value
CC[C@H](C)[C@H](NC(=O)C(C)(C)NC(C)=O)C(=O)NC(C)(C)C(=O)N[C@@H](Cc1ccc(O)cc1)C(=O)NC(C)(C)C(=O)N[C@@H](CC(C)C)C(=O)NC(C)(C)C(=O)N[C@@H](C)C(=O)NC(C)(C)C(=O)NC(C)(C)C=O [Compound 11, bukhansantaibal A] (Ac-[Aib]I[Aib]Y[Aib]L[Aib]A[Aib][Aib]-aldehyde)	inactivity
CC[C@H](C)[C@H](NC(=O)C(C)(C)NC(C)=O)C(=O)NC(C)(C)C(=O)N[C@@H](Cc1ccc(O)cc1)C(=O)NC(C)(C)C(=O)N[C@H](C(=O)NC(C)(C)C(=O)N[C@@H](C)C(=O)NC(C)(C)C(=O)NC(C)(C)C=O)[C@@H](C)CC [Compound 12, bukhansantaibal B] (Ac-[Aib]I[Aib]Y[Aib]I[Aib]A[Aib][Aib]-aldehyde)	inactivity

====

system: HCT-8 (colon cancer) cells; assay: MTT cell viability assay, HCT-8 cells
Where a SMILES comes first, the peptide text is derived from it. [ ]: non-standard residue; d: D form. Aib = CC(C)(N)C(=O)O
endpoint-name: cytotoxicity against HCT-8 cells, in words

compound	recorded-value
CC[C@H](C)[C@H](NC(=O)C(C)(C)NC(C)=O)C(=O)NC(C)(C)C(=O)N[C@@H](Cc1ccc(O)cc1)C(=O)NC(C)(C)C(=O)N[C@@H](CC(C)C)C(=O)NC(C)(C)C(=O)N[C@@H](C)C(=O)NC(C)(C)C(=O)NC(C)(C)C=O [Compound 11, bukhansantaibal A] (Ac-[Aib]I[Aib]Y[Aib]L[Aib]A[Aib][Aib]-aldehyde)	inactivity
CC[C@H](C)[C@H](NC(=O)C(C)(C)NC(C)=O)C(=O)NC(C)(C)C(=O)N[C@@H](Cc1ccc(O)cc1)C(=O)NC(C)(C)C(=O)N[C@H](C(=O)NC(C)(C)C(=O)N[C@@H](C)C(=O)NC(C)(C)C(=O)NC(C)(C)C=O)[C@@H](C)CC [Compound 12, bukhansantaibal B] (Ac-[Aib]I[Aib]Y[Aib]I[Aib]A[Aib][Aib]-aldehyde)	inactivity
